test: chemical genetic growth profiling, strain panel (AID 1159580);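 note: tested at 20 µM; growth read once vehicle control cultures reached saturation at 30 °C; 1 = growth at the plate median or of vehicle wells; lower values mean less growth of the strain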; settings: S. cerevisiae deletion strains, growth OD, locus YML032C, strain rad52, stronger effect = lower value
Hit rate of the full screen: of about 5,500 compounds, about 2,000 (36%) were called active. Another 18% or so got no clear call; they are omitted. The list shows a part of the results.
Kindly state normalized growth for each of the entries shown.
Answers are plain numbers.

Solved cases (2 shown):
| COMPOUND | REPORTED VALUE |
| --- | --- |
| CC1CC[C@@]2(OC1)O[C@H]1CC3C4CC[C@@H]5C[C@@H](O)CC[C@]5(C)C4CC[C@]3(C)[C@H]1[C@@H]2C (stereo partly drawn) | 1.01 |
| O=c1c(O)c(-c2ccc(O)c(O)c2)oc2cc(O)cc(O)c12 | 1.04 |

Count: 6. Required value per item: normalized growth.
1. O=c1cc(-c2ccc(O)cc2)oc2cc(O[C@@H]3O[C@H](CO)[C@@H](O)[C@H](O)[C@H]3O)cc(O)c12
2. C[C@@H]1CC[C@@]2(OC1)OC1CC3C4CC=C5C[C@@H](O)CC[C@]5(C)C4CC[C@]3(C)C1[C@@H]2C (stereo partly drawn)
3. COc1ccccc1/C=C\C(=O)O
4. COc1ccc(-c2cc(=O)c3c(O)cc(O[C@@H]4O[C@H](CO[C@H]5O[C@H](C)[C@@H](O)[C@H](O)[C@@H]5O)[C@@H](O)[C@H](O)[C@H]4O)cc3o2)cc1O
5. NC(=O)NCCCC(N)C(=O)O (stereo not drawn)
6. CC1CC[C@]2(NC1)O[C@H]1CC3C4CC[C@H]5C[C@@H](O)CC[C@]5(C)C4CC[C@]3(C)[C@H]1[C@@H]2C (stereo partly drawn)

Completion:
[0.973, 0.971, 1.03, 1.02, 0.999, 0.105]
